Entries annotated with measured pKd
Molecular target: T1, human IL-2Rβ (human, UniProt P14784 27-240, limits assumed)
T1 construct: also called hIL-2Rβ; IL-2 receptor beta
T1 sequence (looked up): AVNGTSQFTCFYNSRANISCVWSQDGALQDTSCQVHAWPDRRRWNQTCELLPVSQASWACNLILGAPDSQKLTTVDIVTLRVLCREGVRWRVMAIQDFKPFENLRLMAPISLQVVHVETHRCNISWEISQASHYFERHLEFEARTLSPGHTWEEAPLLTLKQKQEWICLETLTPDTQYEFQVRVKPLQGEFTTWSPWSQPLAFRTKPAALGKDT
Assay: SPR, steady state
pKd: −log10 of the molar value.
outcome_measure: pKd

- binder: "hIL-15 V49R/D30H (ligand) NWVNVISDLKKIEDLIQSMHIDATLYTESHVHPSCKVTAMKCFLLELQRISLESGDASIHDTVENLIILANNSLSSNGNVTESGCKECEELEEKNIKEFLQSFVHIVQMFINTGGGGSGHHHHHHHHGGGLNDIFEAQKIEWHE"
  outcome_measure: "pKd"
  sign: "="
  value_observed: 6.83
- binder: "hIL-15 V49R/I68V (ligand) NWVNVISDLKKIEDLIQSMHIDATLYTESDVHPSCKVTAMKCFLLELQRISLESGDASIHDTVENLIVLANNSLSSNGNVTESGCKECEELEEKNIKEFLQSFVHIVQMFINTGGGGSGHHHHHHHHGGGLNDIFEAQKIEWHE"
  outcome_measure: "pKd"
  sign: "="
  value_observed: 6.53
- binder: "hIL-15 V49R/S7H (ligand) NWVNVIHDLKKIEDLIQSMHIDATLYTESDVHPSCKVTAMKCFLLELQRISLESGDASIHDTVENLIILANNSLSSNGNVTESGCKECEELEEKNIKEFLQSFVHIVQMFINTGGGGSGHHHHHHHHGGGLNDIFEAQKIEWHE"
  outcome_measure: "pKd"
  sign: "="
  value_observed: 6.45
- binder: "hIL-15 V49R/K10R (ligand) NWVNVISDLRKIEDLIQSMHIDATLYTESDVHPSCKVTAMKCFLLELQRISLESGDASIHDTVENLIILANNSLSSNGNVTESGCKECEELEEKNIKEFLQSFVHIVQMFINTGGGGSGHHHHHHHHGGGLNDIFEAQKIEWHE"
  outcome_measure: "pKd"
  sign: "="
  value_observed: 6.84
- binder: "hIL-15 V49R/D30K (ligand) NWVNVISDLKKIEDLIQSMHIDATLYTESKVHPSCKVTAMKCFLLELQRISLESGDASIHDTVENLIILANNSLSSNGNVTESGCKECEELEEKNIKEFLQSFVHIVQMFINTGGGGSGHHHHHHHHGGGLNDIFEAQKIEWHE"
  outcome_measure: "pKd"
  sign: "="
  value_observed: 6.45
- binder: "hIL-15 V49R/H32P (ligand) NWVNVISDLKKIEDLIQSMHIDATLYTESDVPPSCKVTAMKCFLLELQRISLESGDASIHDTVENLIILANNSLSSNGNVTESGCKECEELEEKNIKEFLQSFVHIVQMFINTGGGGSGHHHHHHHHGGGLNDIFEAQKIEWHE"
  outcome_measure: "pKd"
  sign: "="
  value_observed: 6.84
- binder: "hIL-15 V49R/E64Q (ligand) NWVNVISDLKKIEDLIQSMHIDATLYTESDVHPSCKVTAMKCFLLELQRISLESGDASIHDTVQNLIILANNSLSSNGNVTESGCKECEELEEKNIKEFLQSFVHIVQMFINTGGGGSGHHHHHHHHGGGLNDIFEAQKIEWHE"
  outcome_measure: "pKd"
  sign: "<"
  value_observed: 6.30
- binder: "hIL-15 V49R/H32G (ligand) NWVNVISDLKKIEDLIQSMHIDATLYTESDVGPSCKVTAMKCFLLELQRISLESGDASIHDTVENLIILANNSLSSNGNVTESGCKECEELEEKNIKEFLQSFVHIVQMFINTGGGGSGHHHHHHHHGGGLNDIFEAQKIEWHE"
  outcome_measure: "pKd"
  sign: "="
  value_observed: 6.34
- binder: "hIL-15 V49R/H32N (ligand) NWVNVISDLKKIEDLIQSMHIDATLYTESDVNPSCKVTAMKCFLLELQRISLESGDASIHDTVENLIILANNSLSSNGNVTESGCKECEELEEKNIKEFLQSFVHIVQMFINTGGGGSGHHHHHHHHGGGLNDIFEAQKIEWHE"
  outcome_measure: "pKd"
  sign: "="
  value_observed: 6.91
- binder: "hIL-15 V49R/D30N (ligand) NWVNVISDLKKIEDLIQSMHIDATLYTESNVHPSCKVTAMKCFLLELQRISLESGDASIHDTVENLIILANNSLSSNGNVTESGCKECEELEEKNIKEFLQSFVHIVQMFINTGGGGSGHHHHHHHHGGGLNDIFEAQKIEWHE"
  outcome_measure: "pKd"
  sign: "="
  value_observed: 6.79
- binder: "hIL-15 V49R/E64N (ligand) NWVNVISDLKKIEDLIQSMHIDATLYTESDVHPSCKVTAMKCFLLELQRISLESGDASIHDTVNNLIILANNSLSSNGNVTESGCKECEELEEKNIKEFLQSFVHIVQMFINTGGGGSGHHHHHHHHGGGLNDIFEAQKIEWHE"
  outcome_measure: "pKd"
  sign: "<"
  value_observed: 6.30
- binder: "hIL-15 V49R/I68Y (ligand) NWVNVISDLKKIEDLIQSMHIDATLYTESDVHPSCKVTAMKCFLLELQRISLESGDASIHDTVENLIYLANNSLSSNGNVTESGCKECEELEEKNIKEFLQSFVHIVQMFINTGGGGSGHHHHHHHHGGGLNDIFEAQKIEWHE"
  outcome_measure: "pKd"
  sign: "<"
  value_observed: 6.00
- binder: "hIL-15 V49R/K11H (ligand) NWVNVISDLKHIEDLIQSMHIDATLYTESDVHPSCKVTAMKCFLLELQRISLESGDASIHDTVENLIILANNSLSSNGNVTESGCKECEELEEKNIKEFLQSFVHIVQMFINTGGGGSGHHHHHHHHGGGLNDIFEAQKIEWHE"
  outcome_measure: "pKd"
  sign: "="
  value_observed: 6.98
- binder: "hIL-15 V49R/N1H (ligand) HWVNVISDLKKIEDLIQSMHIDATLYTESDVHPSCKVTAMKCFLLELQRISLESGDASIHDTVENLIILANNSLSSNGNVTESGCKECEELEEKNIKEFLQSFVHIVQMFINTGGGGSGHHHHHHHHGGGLNDIFEAQKIEWHE"
  outcome_measure: "pKd"
  sign: "="
  value_observed: 6.63
